- Tested on: K4 kissing-loop RNA reporter
- TEST_NAME: apparent KD of K4 kissing-loop reporter; higher = weaker reporter binding
- ASSAY_CONDITIONS: Eterna round: R107; input ligand: theophylline 20 uM
I would appreciate it if you labelled entries True when apparent KD of K4 kissing-loop reporter is 300 nM or higher, otherwise False.

SEQ	CATEGORY_LABEL
CACCAUGAAUUCUCUAGGAGUGAUGUUUUUCGAGGACCGGUACGGCCGCCACUCGGACGAGGACCGUGGGAGCGGCGAAGCGACU [wwegmullin]	True
UGUGUUUUUUUGAUGUUUGUUGUAAAAUGGCAGGAUAUCGUAGAGGCGAGAAGGGCUUUUAUGCGUUAUGAGUGAUGUUUGUAGG [qqdqmullin]	True
UGUGAUGUGUAGAGUGAUGUUUUGAAGGAUACCAGAGUGUUGUUAUUCCCUUGGCAGCUUGAGUGAUGUUUGAUGUUGUUGUUGU [efvrmullin]	False
AUUAUAAAGUCGGCCGCCACUGAGAGUAGUGAUGUUACUCUAUUCCUUUACAUAUUAUAGUUUAUCAGGACCGGGACAUCAGAUU [JR_ExcTryptoB_Sub018]	False
AUUUUGGUUUAGAGUGAUGUUCCUUGUAUUCGAGGACCGGUACGGCCGCCACUCGGGUAGAAAAGAAAAGAAAUGUUUGAUUUUU [BDazzled - #9 SS Tryptophan A]	False
GGGCCUAUUGAUGCUGGAGCAAUUCUGGAAGGAGCGCUCAAAGGAGCAGGUAGGUCGCCAGUAUGCAAGGGCAGUGAUGUUGCCC [Ersoarxe]	False
AUAGCACCUUAUGAUACCAGACGAGUGAUGUUCUGUGGUGUCGUCACAAGGCAAUCGACUGUCCCUUGGCAGCAUCAUUCUAUAU [theeternabot_exclusion_KL_Theo_B_31]	True
UGUGUUGUGUAGUGUUAUGUUUUGAGGGAUACCAGAGUGUUUUUAUUCCCUUGGCAGCUUGAGUGAUGUUUGAUGUUGUUGUUGU [jlljmullin]	False
AACUCUCAGACAUCUGAGUGAUGUUCAGGCCGAGGACCGGUACGGCCGCCACUCGGGUCUGAGAGAGGUUAUCAAAGAUAGCCAA [Omei KL Tryp A SS A v4]	True
UUAGCGACAAGUCAGAUUCUGACAAUUGAUACCAGAUAGAAUUCUAUCCCUUGGCAGCAGUGAUGUUGUUGCAAUAAGUCGCAUU [AK2 Exc Theophylline A]	False
UCCUGCAAUCUGCCACGAAAGUGGAUUGAUACCAGAGUCGAAAGACUCCCUUGGCAGCGAGUGAUGUUCGUUGCAGGUAAAUAAA [MatMod 7 - Jieux - Exclusion - Theophylline A]	False
GCCGUAGAUUGAAGGAGCGUGGACCUAUCGCUUGAACAGUGAUGUUGUUUAUCUAGGAAGCCGCAGGUAGGUCGCAAUCUACGGC	True

* * *

- Test system: MS2 coat protein
- TEST_NAME: apparent KD of MS2 coat protein, switch OFF state (with FMN for OFF switches, without FMN for ON switches); designed switch direction (-1 OFF switch, 1 ON switch): 1; higher = weaker reporter binding
- ASSAY_CONDITIONS: FMN input: 0 or 200 uM; Eterna round: R93 (includes R88 designs)

SEQ	MEASURED_TARGET	READING_UNIT	apparent KD of MS2 coat protein
GAGAAACAUGAGGAUCACCCAUGUAGAAAUAUGGGAGGAUAUACAAAGACGAAAGUCAAAGUAGAAGGCCUAAAAG [77%, Mat - Mod of Eli - With 1 more G's]	MS2 coat protein	nM	55.9
GAAAAACAUGAGGAUCACCCAUGUGUAAAUAUGGAAGGAUAUACGAAGACGUAAGUCAAAGUAGAAGGUCUAAAAG [Garnet 99]	MS2 coat protein	nM	24.9
GGGAGUAACAGAGAGGAUAUCCAAAGGAAAACAUGAGGAUCACCCAUGUAAAAGGAAGGAAAUUGGGAGAAGGCUCAAAAUAGAA [salish99-ss2-021]	MS2 coat protein	nM	27

* * *

- Tested on: MS2 coat protein
- TEST_NAME: apparent KD of MS2 coat protein; designed switch direction (-1 OFF switch, 1 ON switch): -1; higher = weaker reporter binding
- ASSAY_CONDITIONS: input ligand: FMN 200 uM

SEQ	apparent KD of MS2 coat protein, nM
GGAAGGCGAGGAUAUGCAAUAAUACACUCGAAGGAGUGAUAACAUGAGGAUCACCCAUGUAGAAGGCGCGAGAA [AK-MS2ROC-r4-exclusion2-6] (Eterna round: R97, puzzle: Exclusion 2)	36.1
GUCAGCUCGUCAGGAUAUACAUCACUGCUUCGGCAGUGUAUUAAGAUCACAUGAGGAUCACCCAUGUAGAAGGGACGAGCUGAC [ENG2/2-B1] (Eterna round: R96, puzzle: Exclusion NG 2)	269
GAUAAUGAAGGAUAUACAGGCGGUCCGUGACUAGUCUUCAUACAUGAGGAUCACCCAUGUAGAAGGUCAAUGUU [Eternabot (L1) Solution 64] (Eterna round: R97, puzzle: Exclusion 2)	23.3
UCACGGGACUGAGGAUAUACAUCAACCAUGGUUGUAGAAGGCAGAAGGUUGGAUCAUACACUAAACAUGAGGAUCACCCAUGUU [JR_ExcNG1_Sub029] (Eterna round: R96, puzzle: Exclusion NG 1)	17.7
UGAUCUAGCGGAGGAUAUACAUGAGGAUCACCCAUGUAGAUAACUGCACCGUAGUGUAGUAUUGUGUAGAAGGCCGCUAGAUCU [JL ENG2 3.65] (Eterna round: R96, puzzle: Exclusion NG 2)	26.8

* * *

- Test system: K4 kissing-loop RNA reporter
- TEST_NAME: apparent KD of K4 kissing-loop reporter; higher = weaker reporter binding
- ASSAY_CONDITIONS: Eterna round: R107; input ligand: FMN 200 uM

SEQ	READING_UNIT	apparent KD of K4 kissing-loop reporter
AACUCUCAGAUACUUGAGUGAUGUUCAGGCCGAGGACCGGUACGGCCGCCACUCGGGUCUGAGAGAGGUUAUCAAAGAUAGCCAA [Omei KL Tryp A SS A v10]	nM	266
AAACAACGUGACGAUACCAGCUUACUCGGCAAGCCAGUGAUGUUGGUGAAAAGGAGUCAAAGCCCUUGGCAGCGUCGAAGGUUUG [Leteon]	nM	310
CGCAGUGAUGUUGCGAGCAGCUACAGGGAAGGAGCGCUUUAGUAAGCAGGUAGGUCGCCCACGCAGUGAUGUUGCGUCAUAGGGU [Exclusion Arginine A GF 20]	nM	158
UGACUUGCCUGAGGAUAUCUAGGAUAUCCAUAAAAGGAAAUAAUAGUUCAGUGAUGUUGGAGAAGGAGAGAAGGCAGGUAAGUCU [KL-XFMN-B18 #DoubleAptamer #SwitchBubble]	nM	671
GGUAGGGCAGCUGCGGAAACGCAGCAUAUCGAGGAUAUCGGGAAACCGAGAAGGCGAGUAGUGAUGUUACUGGUUUAGCCCUACC	nM	444
CCAUCGCUAUUCGAUACCAGUCAAGAGGUCUUUGGCCUCUUAAUGGAGUGAUGUUCCUUAGACCCUUGGCAGCGAAUAGUGAUGG [Theophylline B K4 13]	nM	266

* * *

- Test system: K4 kissing-loop RNA reporter;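 note: bound reporter read as fluorescence of individual clusters on recovered sequencing chips by microscopy, with normalized cluster intensities fitted with a binding model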
- TEST_NAME: apparent KD of K4 kissing-loop reporter; higher = weaker reporter binding
- ASSAY_CONDITIONS: Eterna round: R107; input ligand: none
Below: a set of entries, each annotated with reported apparent KD of K4 kissing-loop reporter.

SEQ	MEASURED_TARGET	apparent KD of K4 kissing-loop reporter
GUAUCGCUAGGAGGAUAUUUCAAAUAAUAAAUAAAUGGAUAUUCGGAGUGAUGUUCCGAUUUACGGAAAGAAGGCCUAGUGAUAC [FMN B 2]	K4 kissing-loop RNA reporter	157 nM
GAUUCCCAAGCGGCCGCCACUUAUAGUGAUGUUAUAGGGACUGCGGAUCAGGACAAUCAUACAUAAAGGACCGGGCUAUUCUGAC [theeternabot_exclusion_KL_Trp_B_1]	K4 kissing-loop RNA reporter	305 nM
UUUAUUAAGACGGCCGCCACUGAUUCAUAGUGAUGUUAUGAUAUAAUUUUAGUGAUAUGCAUUAGCAGGACCGGGUCAAUUAUUA [JR_ExcTryptoB_Sub017]	K4 kissing-loop RNA reporter	166 nM
AAGCCGGUUGCGGCCGCCACUUUUGCGGACCCGGUGCAGUGAUGUUGCGCAUCGCGGGUUGCUUAAAGGACCGGGCACCUCUAAC [theeternabot_sameState_KL_Trp_B_7]	K4 kissing-loop RNA reporter	401 nM
AUAUGCAGGAGAAGGAGCGUCGUUGCAAGUGAUGUUUGCAAGCGAGCUUACUAUAUACGACGACAGGUAGGUCGCUCCUGCGUAA [Arg B Ex t2]	K4 kissing-loop RNA reporter	64.8 nM
UUAGGAGUGGGAGGAUAUCCUAAUGUGGGUGAUGUUAGCGAUGUUGAAAGUGUAGUGAUGUUGUGCGGAGAAGGUCCAGUGUUGA [BDazzled - #12 - Exc. FMN B]	K4 kissing-loop RNA reporter	175 nM
